Assay: End-capped ODS (RP-18e) column chromatography: log kw,ODS
Assay type: physicochemical
Conditions: acetonitrile 0.3-0.6, 25 °C
Label Y for high-side log kw,ODS (at or above 3) and N for low-side log kw,ODS (below it).

* CCOC(=O)c1nnc2n(c1=O)CCN2c1ccccc1 | N
* CCOC(=O)c1nnc2n(c1=O)CCN2c1ccc(Cl)cc1 | N
* CCOC(=O)c1nnc2n(c1=O)CCN2c1cccc(Cl)c1 | N
* CCOC(=O)c1nnc2n(c1=O)CCN2c1ccc(C)cc1 | N
* CCOC(=O)c1nnc2n(c1=O)CCN2c1ccc(Cl)c(Cl)c1 | Y

* * *

Assay: Micellar liquid chromatography (MLC), ODS-2 column, Brij 35 effluent: chromatographic lipophilicity
Type: physicochemical
Details: 0.1 M Brij 35, 7% isopropanol, pH 7.4, ODS-2 column, 25 °C
Excerpt: There are several theories that describe the effect of the concentration of the surfactant in the effluent on the retention of the solute in MLC [23]. […] The KAM and km parameters can be evaluated from the slope and intercept of the experimental 1/k vs. [M] relationships. Equation (2) describes a linear dependence between decreasing retention and increasing micelle concentration. […] The micellar retention parameter, log km, is considered analogous to the log kw parameter evaluated in RPLC. […]
Some compounds, each annotated with its measured k (MLC retention factor).
Test readout: k (MLC retention factor)

* Cc1ccc(N2CCn3c2nnc(C(F)(F)F)c3=O)cc1 [Compound 9] | 21.44
* O=c1c(C(F)(F)F)nnc2n1CCN2c1ccccc1 [Compound 7] | 12.22
* O=c1c(C(F)(F)F)nnc2n1CCN2c1ccc(Cl)c(Cl)c1 [Compound 14] | 44.28
* CC(C)c1nnc2n(c1=O)CCN2c1ccccc1Cl [Compound 3] | 8.18
* CC(C)c1nnc2n(c1=O)CCN2c1ccc(Cl)cc1 [Compound 5] | 33.76
* CC(C)c1nnc2n(c1=O)CCN2c1cccc(Cl)c1 [Compound 4] | 31.65
* COc1ccccc1N1CCn2c1nnc(C(F)(F)F)c2=O [Compound 10] | 5.40
* Cc1ccc(N2CCn3c2nnc(C(C)C)c3=O)cc1 [Compound 2] | 21.45
* O=c1c(C(F)(F)F)nnc2n1CCN2c1cccc(Cl)c1 [Compound 12] | 29.09
* O=c1c(C(F)(F)F)nnc2n1CCN2c1ccc(Cl)cc1 [Compound 13] | 32.28
* CCOC(=O)c1nnc2n(c1=O)CCN2c1ccc(Cl)cc1 [Compound 18] | 8.48
* O=c1c(C(F)(F)F)nnc2n1CCN2c1ccccc1Cl [Compound 11] | 9.36
* CCOC(=O)c1nnc2n(c1=O)CCN2c1ccc(C)cc1 [Compound 16] | 4.04
* CCOC(=O)c1nnc2n(c1=O)CCN2c1ccc(Cl)c(Cl)c1 [Compound 19] | 18.98
* CCOC(=O)c1nnc2n(c1=O)CCN2c1cccc(Cl)c1 [Compound 17] | 8.72
* Cc1ccccc1N1CCn2c1nnc(C(F)(F)F)c2=O [Compound 8] | 5.97
* CC(C)c1nnc2n(c1=O)CCN2c1ccc(Cl)c(Cl)c1 [Compound 6] | 46.76
* CCOC(=O)c1nnc2n(c1=O)CCN2c1ccccc1 [Compound 15] | 1.90
* CC(C)c1nnc2n(c1=O)CCN2c1ccccc1 [Compound 1] | 12.03

* * *

Test: Micellar liquid chromatography (MLC), ODS-2 column, Brij 35 effluent: chromatographic lipophilicity
Assay type: physicochemical
Settings: 0.075 M Brij 35, 7% isopropanol, pH 7.4, ODS-2 column, 25 °C
k (MLC retention factor): recorded values
Test readout: k (MLC retention factor)

- O=c1c(C(F)(F)F)nnc2n1CCN2c1ccccc1 [Compound 7]: 14.11
- Cc1ccc(N2CCn3c2nnc(C(C)C)c3=O)cc1 [Compound 2]: 25.51
- COc1ccccc1N1CCn2c1nnc(C(F)(F)F)c2=O [Compound 10]: 5.89
- CC(C)c1nnc2n(c1=O)CCN2c1ccc(Cl)cc1 [Compound 5]: 41.53
- CC(C)c1nnc2n(c1=O)CCN2c1ccc(Cl)c(Cl)c1 [Compound 6]: 60.81
- CC(C)c1nnc2n(c1=O)CCN2c1ccccc1Cl [Compound 3]: 8.98
- O=c1c(C(F)(F)F)nnc2n1CCN2c1ccc(Cl)cc1 [Compound 13]: 41.71
- Cc1ccc(N2CCn3c2nnc(C(F)(F)F)c3=O)cc1 [Compound 9]: 25.67
- O=c1c(C(F)(F)F)nnc2n1CCN2c1ccc(Cl)c(Cl)c1 [Compound 14]: 59.61
- O=c1c(C(F)(F)F)nnc2n1CCN2c1ccccc1Cl [Compound 11]: 10.61
- CCOC(=O)c1nnc2n(c1=O)CCN2c1ccc(Cl)c(Cl)c1 [Compound 19]: 24.39
- O=c1c(C(F)(F)F)nnc2n1CCN2c1cccc(Cl)c1 [Compound 12]: 36.90
- CCOC(=O)c1nnc2n(c1=O)CCN2c1ccc(Cl)cc1 [Compound 18]: 9.94
- CCOC(=O)c1nnc2n(c1=O)CCN2c1ccc(C)cc1 [Compound 16]: 4.49
- CC(C)c1nnc2n(c1=O)CCN2c1ccccc1 [Compound 1]: 13.73
- Cc1ccccc1N1CCn2c1nnc(C(F)(F)F)c2=O [Compound 8]: 6.50
- CCOC(=O)c1nnc2n(c1=O)CCN2c1ccccc1 [Compound 15]: 2.09
- CC(C)c1nnc2n(c1=O)CCN2c1cccc(Cl)c1 [Compound 4]: 39.84
- CCOC(=O)c1nnc2n(c1=O)CCN2c1cccc(Cl)c1 [Compound 17]: 10.12

The values you see were collected from paper PMC8072580.
